# Method notes: Intrinsic clearance in human liver microsomes after 45 mins by LC-MS/MS analysis
# Type: ADME
# Run parameters: read-out: CLH
Below, each entry is listed with its recorded microsomal CLint.
The figure you give is taken to be in µL/min/mg; do not add the unit.

Observe how each entry below is paired with its result.
{"columns": ["Molecule", "Property name", "Val"],
 "data": [
  ["COC(=O)N1[C@@H]2CC[C@H]1C[C@@](O)(C#Cc1cccc(C)c1)C2", "microsomal CLint", 68],
  ["COC(=O)N1[C@@H]2CC[C@H]1C[C@](O)(C#Cc1cccc(OC)c1)C2", "microsomal CLint", 67],
  ["COC(=O)N1[C@@H]2CC[C@H]1C[C@](O)(C#Cc1cccc(Cl)c1)C2", "microsomal CLint", 69]
]}

Q: Fill in: microsomal CLint of COC(=O)N1CC[C@@H]2[C@H]1CCC[C@@]2(O)C#Cc1cccc(C)c1 [MAVOGLURANT] is ___
A: 51

Q: And what about the molecule CCOC(=O)N1[C@@H]2CC[C@H]1C[C@](O)(C#Cc1cccc(C)c1)C2 ?
A: 428

Q: Record: COC(=O)N1CCC(O)(C#Cc2cccc(C)c2)[C@@H]2CCC[C@@H]21 (mixture of isomers)
A: 278

Q: Please do the same for Cc1cccc(C#C[C@]2(O)C[C@H]3CC[C@@H](C2)N3C(=O)N(C)C)c1 as well.
A: 141
